# System: Aspergillus niger
# Protocol: Inhibition of Aspergillus niger amyloglucosidase at 1 mM
Active and inactive are the calls of the source. The calls are words filed in the database; no cut-off is given here.

Compound Structure String	inhibition
CC(=O)N[C@@H]1CNC[C@H](O)[C@@H](O)[C@@H]1O	inactive
CC(=O)N[C@H]1CNC[C@H](O)[C@@H](O)[C@@H]1O	19%
CC(=O)N[C@H]1CN[C@H](CO)[C@@H](O)[C@H](O)[C@@H]1O	inactive
CC(=O)N[C@@H]1[C@@H](O)[C@H](O)[C@@H](CO)NC[C@H]1O	inactive
